Target: T1, Mcl-1, Q07820
T1 chain: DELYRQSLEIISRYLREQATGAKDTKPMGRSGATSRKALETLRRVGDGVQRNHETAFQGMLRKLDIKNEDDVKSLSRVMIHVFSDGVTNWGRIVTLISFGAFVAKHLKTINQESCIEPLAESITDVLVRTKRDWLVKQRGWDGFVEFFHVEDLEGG
Assay: peptide SPOT array, c-Myc-tagged receptor at 1 uM or 100 nM, anti-c-Myc-Cy3
property: SPOT signal as a fraction of Bim BH3's signal on the same receptor and array
Answer using only a numeral; do not append any unit.

Which SPOT signal as a fraction of Bim BH3's signal on the same receptor and array is reported for this binder? SSTMGQVGRQDAIIGDDINRRYDSEF [BAK1]
0.01

I have this binder here, LFKAADSSRSIYEVAMQLLQILEPKM [FRYL] , and I need its recorded SPOT signal as a fraction of Bim BH3's signal on the same receptor and array.
0.02

Look up SPOT signal as a fraction of Bim BH3's signal on the same receptor and array for this binder: HQAEVQIARKDQCIADQFHRLHVQQH [BMF]
0.01

I am curious: what SPOT signal as a fraction of Bim BH3's signal on the same receptor and array value has been reported for LRVSTKIGSCMKSVLEVMGIGRSFEE [CAD] ?
0.04

Request the reported SPOT signal as a fraction of Bim BH3's signal on the same receptor and array associated with NKTMTQLSSTLARCAKDILGFAVMFF [PKD2L1]
0.11

Which SPOT signal as a fraction of Bim BH3's signal on the same receptor and array is reported for this binder? DRYEGFCVDMLKELAEILRFNYKIRL [GRIK4]
0.03

Looking for the measured SPOT signal as a fraction of Bim BH3's signal on the same receptor and array of DLTDKLVSFYLETYGAELTANVLRDM [PYCARD] , can you help?
0.07

Bench note: what SPOT signal as a fraction of Bim BH3's signal on the same receptor and array did TGVNGEISYSLFQASEEIGKTFKINP [PCDHB13] show?
0.01

Reported SPOT signal as a fraction of Bim BH3's signal on the same receptor and array for AICIEEIGVWMKMYLDAFLNDSYLKY [STAG1] : what is it?
0.03

So what's the measured SPOT signal as a fraction of Bim BH3's signal on the same receptor and array for this one? CILNSFYGYVMRKGLRWYSMEMAGIV [POLE]
0.24

Dear colleague, I am looking for the recorded SPOT signal as a fraction of Bim BH3's signal on the same receptor and array of the following binder: NWFGDWSTEALYQVGKEFTSKMDLEK [DYNC1H1]
0.03

// returns reported SPOT signal as a fraction of Bim BH3's signal on the same receptor and array for input ELDEDDLEAELDALLDELLADEDSSY [CHMP5]
0.03

What does the record list as SPOT signal as a fraction of Bim BH3's signal on the same receptor and array for QPHTGKLCWFLDEAAARLLTVPFEKH [PGLS] ?
0.02

Which SPOT signal as a fraction of Bim BH3's signal on the same receptor and array is reported for this binder? APGEEDLCAADNVICDNVGKDWRRLA [FADD]
0.03

These data points were gathered from paper PMC4072508.
